- TEST_DETAILS: recombinant barcode read abundance after kanamycin selection (control-corrected) (log10(CPM+1)); higher = more efficient recombination; sequences stand for … in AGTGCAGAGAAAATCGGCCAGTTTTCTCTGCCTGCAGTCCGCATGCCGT…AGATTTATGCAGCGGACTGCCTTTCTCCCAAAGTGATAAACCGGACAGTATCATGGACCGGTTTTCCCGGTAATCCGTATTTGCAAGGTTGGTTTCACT; site = the 11-nt target;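 note: IS621 recombinase and bridge RNA in Escherichia coli cells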
Assign Met to entries whose recombinant barcode read abundance (log10) meets or exceeds 0.4; assign Not met to the rest.

>  <CHAIN_SEQUENCE>
CATAGATCTTGGGTTCTAACCTGTTGCAT (site CATAGATCTAT)

>  <GROUP_LABEL>
Met

$$$$
>  <CHAIN_SEQUENCE>
CATCGAGCTTGGGTTCTAACCTGTTGCCG (site CAACGAGCTCG)

>  <GROUP_LABEL>
Not met

$$$$
>  <CHAIN_SEQUENCE>
TGGCTCCCTTGGGTTCTAACCTGTTGCGG (site TGGCTCCCTCG)

>  <GROUP_LABEL>
Not met

$$$$
>  <CHAIN_SEQUENCE>
ATTTGGACTTGGGTTCTAACCTGTTGCCT (site ATTTGAACTAG)

>  <GROUP_LABEL>
Not met

$$$$
>  <CHAIN_SEQUENCE>
TATCCATCTTGGGTTCTAACCTGTTGCCT (site TATCCATCTAG)

>  <GROUP_LABEL>
Met

$$$$
>  <CHAIN_SEQUENCE>
GCGAGCCCTTGGGTTCTAACCTGTTGCGT (site GCGAGCCCTAC)

>  <GROUP_LABEL>
Met

$$$$
>  <CHAIN_SEQUENCE>
TCTCACGCTTGGGTTCTAACCTGTTGCCT (site TCGCACGCTAG)

>  <GROUP_LABEL>
Not met

$$$$
>  <CHAIN_SEQUENCE>
GGATCTACTTGGGTTCTAACCTGTTGCCT (site GGATCTACTAG)

>  <GROUP_LABEL>
Not met

$$$$
>  <CHAIN_SEQUENCE>
TAGACTACTTGGGTTCTAACCTGTTGCTA (site TAGACTACTGA)

>  <GROUP_LABEL>
Not met

$$$$
>  <CHAIN_SEQUENCE>
TTAGTAGCTTGGGTTCTAACCTGTTGCCT (site TTAGTGGCTAG)

>  <GROUP_LABEL>
Not met

$$$$
>  <CHAIN_SEQUENCE>
AGGACAACTTGGGTTCTAACCTGTTGCCT (site AGAACAACTAG)

>  <GROUP_LABEL>
Not met

$$$$
>  <CHAIN_SEQUENCE>
GCAAGTCCTTGGGTTCTAACCTGTTGCGT (site GCAAGTCCTAC)

>  <GROUP_LABEL>
Met

$$$$
>  <CHAIN_SEQUENCE>
AAAGTGTCTTGGGTTCTAACCTGTTGCCT (site AAAGTGTCTAG)

>  <GROUP_LABEL>
Met

$$$$
>  <CHAIN_SEQUENCE>
TGTATCGCTTGGGTTCTAACCTGTTGCCT (site TGTCCCGCTAG)

>  <GROUP_LABEL>
Not met

$$$$
>  <CHAIN_SEQUENCE>
GAGAGGTCTTGGGTTCTAACCTGTTGCTT (site GAGAGGTCTAT)

>  <GROUP_LABEL>
Met

$$$$
>  <CHAIN_SEQUENCE>
AGCAGCACTTGGGTTCTAACCTGTTGCCT (site CGCAGCACTAG)

>  <GROUP_LABEL>
Not met

$$$$
>  <CHAIN_SEQUENCE>
GTAGCGACTTGGGTTCTAACCTGTTGCCT (site ATAGGGACTAG)

>  <GROUP_LABEL>
Not met

$$$$
>  <CHAIN_SEQUENCE>
CAAACTCCTTGGGTTCTAACCTGTTGCCT (site CAAACTCCTAT)

>  <GROUP_LABEL>
Not met

$$$$
>  <CHAIN_SEQUENCE>
CACAGTACTTGGGTTCTAACCTGTTGCCT (site AACAGTACTAG)

>  <GROUP_LABEL>
Not met

$$$$
>  <CHAIN_SEQUENCE>
GCCGAGACTTGGGTTCTAACCTGTTGCCT (site GCCGACACTAG)

>  <GROUP_LABEL>
Not met

$$$$
>  <CHAIN_SEQUENCE>
ACATGGACTTGGGTTCTAACCTGTTGCAT (site ACATGTACTAT)

>  <GROUP_LABEL>
Not met

$$$$
>  <CHAIN_SEQUENCE>
AGGACAACTTGGGTTCTAACCTGTTGCCT (site AGGACAACTAG)

>  <GROUP_LABEL>
Not met

$$$$
>  <CHAIN_SEQUENCE>
AATAGGACTTGGGTTCTAACCTGTTGCTA (site AATAGGACTTA)

>  <GROUP_LABEL>
Met

$$$$
>  <CHAIN_SEQUENCE>
AGGAACCCTTGGGTTCTAACCTGTTGCTC (site AGGAACCCTGA)

>  <GROUP_LABEL>
Met

$$$$
>  <CHAIN_SEQUENCE>
TAGTGATCTTGGGTTCTAACCTGTTGCCT (site TAATGATCTAG)

>  <GROUP_LABEL>
Not met

$$$$
>  <CHAIN_SEQUENCE>
CTCTAGCCTTGGGTTCTAACCTGTTGCGT (site CTCTACCCTAC)

>  <GROUP_LABEL>
Not met

$$$$
>  <CHAIN_SEQUENCE>
CTACTAGCTTGGGTTCTAACCTGTTGCAA (site CTACTAGCTGT)

>  <GROUP_LABEL>
Not met

$$$$
>  <CHAIN_SEQUENCE>
AGTTGCACTTGGGTTCTAACCTGTTGCCT (site AGTTGCACTAG)

>  <GROUP_LABEL>
Met

$$$$
>  <CHAIN_SEQUENCE>
CCTGGGACTTGGGTTCTAACCTGTTGCGT (site CCTGGGACTGC)

>  <GROUP_LABEL>
Not met

$$$$
>  <CHAIN_SEQUENCE>
TACCCGACTTGGGTTCTAACCTGTTGCCT (site TACCGGACTAG)

>  <GROUP_LABEL>
Not met

$$$$
>  <CHAIN_SEQUENCE>
CCTAATCCTTGGGTTCTAACCTGTTGCGT (site CCTAATCCTAC)

>  <GROUP_LABEL>
Met

$$$$
>  <CHAIN_SEQUENCE>
ACGTTTCCTTGGGTTCTAACCTGTTGCAT (site AAGTTTCCTAC)

>  <GROUP_LABEL>
Not met

$$$$
>  <CHAIN_SEQUENCE>
TATTATACTTGGGTTCTAACCTGTTGCAT (site TATTATACTAA)

>  <GROUP_LABEL>
Not met

$$$$
>  <CHAIN_SEQUENCE>
GTAGGAACTTGGGTTCTAACCTGTTGCTG (site GTAGGAACTCA)

>  <GROUP_LABEL>
Met

$$$$
>  <CHAIN_SEQUENCE>
GAGGTCCCTTGGGTTCTAACCTGTTGCGG (site GAGGTCCCTCC)

>  <GROUP_LABEL>
Met

$$$$
>  <CHAIN_SEQUENCE>
GTGAACCCTTGGGTTCTAACCTGTTGCAA (site TCCGGAGCTCG)

>  <GROUP_LABEL>
Not met

$$$$
>  <CHAIN_SEQUENCE>
GTACATCCTTGGGTTCTAACCTGTTGCGT (site AAGGTCACTCA)

>  <GROUP_LABEL>
Not met

$$$$
>  <CHAIN_SEQUENCE>
GATAGTACTTGGGTTCTAACCTGTTGCCT (site GATAGTACTAG)

>  <GROUP_LABEL>
Met

$$$$
>  <CHAIN_SEQUENCE>
CTCCCAACTTGGGTTCTAACCTGTTGCCG (site CTCCCAACTCG)

>  <GROUP_LABEL>
Not met

$$$$

###

- TEST_DETAILS: recombinant barcode read abundance after kanamycin selection (control-corrected) (log10(CPM+1)); higher = more efficient recombination; sequences stand for … in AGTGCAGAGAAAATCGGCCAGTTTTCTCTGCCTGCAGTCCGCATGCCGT…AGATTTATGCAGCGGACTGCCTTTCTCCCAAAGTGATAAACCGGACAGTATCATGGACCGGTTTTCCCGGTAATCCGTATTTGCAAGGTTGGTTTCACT; site = the 11-nt target
READOUT_LABEL: recombinant barcode read abundance (log10)

>  <CHAIN_SEQUENCE>
GTCTTGACTTGGGTTCTAACCTGTTGCCA (site GTCTTGACTTG)

>  <ENDPOINT_RESULT>
0.102

$$$$
>  <CHAIN_SEQUENCE>
GTCCTACCTTGGGTTCTAACCTGTTGCAA (site GTCCTAACTGT)

>  <ENDPOINT_RESULT>
0.42

$$$$
>  <CHAIN_SEQUENCE>
GTCACTACTTGGGTTCTAACCTGTTGCGT (site GTCACTACTAC)

>  <ENDPOINT_RESULT>
0.517

$$$$
>  <CHAIN_SEQUENCE>
TCAGAATCTTGGGTTCTAACCTGTTGCCT (site TCAGTATCTAG)

>  <ENDPOINT_RESULT>
0.0618

$$$$
>  <CHAIN_SEQUENCE>
CTATCGTCTTGGGTTCTAACCTGTTGCCT (site CTATCGTCTAG)

>  <ENDPOINT_RESULT>
1.22

$$$$
>  <CHAIN_SEQUENCE>
AGGAGTACTTGGGTTCTAACCTGTTGCTT (site GCATCCTCTTG)

>  <ENDPOINT_RESULT>
0.12

$$$$
>  <CHAIN_SEQUENCE>
TGAGTCCCTTGGGTTCTAACCTGTTGCCT (site TGTGTCCCTAG)

>  <ENDPOINT_RESULT>
0.523

$$$$
>  <CHAIN_SEQUENCE>
GAATCAACTTGGGTTCTAACCTGTTGCTT (site GAATCAACTAA)

>  <ENDPOINT_RESULT>
0.0878

$$$$
>  <CHAIN_SEQUENCE>
CGGTTTCCTTGGGTTCTAACCTGTTGCCT (site CTATTTCCTAG)

>  <ENDPOINT_RESULT>
0.0218

$$$$
>  <CHAIN_SEQUENCE>
GGGCTTACTTGGGTTCTAACCTGTTGCCT (site GAGCTTACTAG)

>  <ENDPOINT_RESULT>
0.695

$$$$
>  <CHAIN_SEQUENCE>
ACGGGCTCTTGGGTTCTAACCTGTTGCTT (site ACGGGCTCTAA)

>  <ENDPOINT_RESULT>
2.69

$$$$
>  <CHAIN_SEQUENCE>
ACCCAGCCTTGGGTTCTAACCTGTTGCAT (site ACCCAGCCTAT)

>  <ENDPOINT_RESULT>
2.45

$$$$
>  <CHAIN_SEQUENCE>
CATTGGACTTGGGTTCTAACCTGTTGCCT (site CAATGGACTAG)

>  <ENDPOINT_RESULT>
0.112

$$$$
>  <CHAIN_SEQUENCE>
CTATGCCCTTGGGTTCTAACCTGTTGCTA (site CTATGCCCTTA)

>  <ENDPOINT_RESULT>
1.16

$$$$
>  <CHAIN_SEQUENCE>
GTCTAAGCTTGGGTTCTAACCTGTTGCTT (site GTCTATGCTAC)

>  <ENDPOINT_RESULT>
0.295

$$$$
>  <CHAIN_SEQUENCE>
GATCGATCTTGGGTTCTAACCTGTTGCGT (site GATCGATCTAT)

>  <ENDPOINT_RESULT>
0.265

$$$$
>  <CHAIN_SEQUENCE>
TCACGTCCTTGGGTTCTAACCTGTTGCTT (site TCACGTCCTAT)

>  <ENDPOINT_RESULT>
0.145

$$$$
>  <CHAIN_SEQUENCE>
GTGTGTTCTTGGGTTCTAACCTGTTGCCT (site GTGTGTTCTAG)

>  <ENDPOINT_RESULT>
0.726

$$$$
>  <CHAIN_SEQUENCE>
CGAATCGCTTGGGTTCTAACCTGTTGCCT (site CGAATCTCTAG)

>  <ENDPOINT_RESULT>
0.084

$$$$
>  <CHAIN_SEQUENCE>
AACGCTCCTTGGGTTCTAACCTGTTGCCT (site ATCGCTCCTAG)

>  <ENDPOINT_RESULT>
0.239

$$$$
>  <CHAIN_SEQUENCE>
GTATGGTCTTGGGTTCTAACCTGTTGCGT (site GTATGGTCTAC)

>  <ENDPOINT_RESULT>
2.98

$$$$
